Measured optomotor response to red moving lines, listed per entry.
# Tested on: Danio rerio larvae (5 dpf)
# testName: optomotor response to red moving lines, difference vs DMSO (percentage points (treated minus DMSO)); higher = more of the behaviour than the DMSO vehicle control
# measurementContext: 10 µM; exposure time: 3 h pre-incubation + 3 h imaging
Counter-ions that a name gives are not always drawn.

Answered examples (5):
molecule	assayReadout	reading
CN(CCOc1ccc(CC2SC(=O)NC2=O)cc1)c1ccccn1 (stereo not drawn)	optomotor response to red moving lines	-2.8
CCOC(=O)[C@H](CCc1ccccc1)N[C@@H](C)C(=O)N1[C@H](C(=O)O)C[C@@H]2CCC[C@@H]21	optomotor response to red moving lines	-1.65
COc1ccccc1OCC(O)CN1CCN(CC(=O)Nc2c(C)cccc2C)CC1 (stereo not drawn) [Ranolazine dihydrochloride]	optomotor response to red moving lines	9.27
CN1CC[C@@H](NC(=O)Nc2ccc(C#N)cc2)C[C@@H]1c1nc2ccccc2[nH]1	optomotor response to red moving lines	-0.356
CC(C)[C@H]1CC[C@H](C(=O)N[C@H](Cc2ccccc2)C(=O)O)CC1 [Nateglinide]	optomotor response to red moving lines	12.8

Request: Would you kindly share the measured optomotor response to red moving lines for CCC(=O)O[C@]1(C(=O)SCF)[C@H](C)C[C@H]2[C@@H]3C[C@H](F)C4=CC(=O)C=C[C@]4(C)[C@@]3(F)[C@@H](O)C[C@@]21C [Fluticasone propionate] ?
Response: -12.2

Request: Moving on to CCCCCCCN(CC)CCCC(O)c1ccc(NS(C)(=O)=O)cc1 (stereo not drawn) [Ibutilide hemifumarate]
Response: 10.1

Request: Moving on to CCCN(CCC)S(=O)(=O)c1ccc(C(=O)O)cc1
Response: -2.21

----------
Measured optomotor response to red moving lines, listed per entry.
# Tested on: Danio rerio larvae (5 dpf)
# testName: optomotor response to red moving lines, difference vs DMSO (percentage points (treated minus DMSO)); higher = more of the behaviour than the DMSO vehicle control
# measurementContext: 10 µM; exposure time: 3 h pre-incubation + 3 h imaging
Where a name gives a salt, the structure may show the parent alone.
Keep the answer to the number alone.

                                   compound  reading
0  OC(c1cc(C(F)(F)F)nc2c(C(F)(F)F)cccc12)C1CCCCN1 (centres undefined) [Mefloquine hydrochloride]     8.36

Request: Kindly state the measured optomotor response to red moving lines obtained for CCOC(=O)c1ncn2c1CN(C)C(=O)c1cc(F)ccc1-2 with Danio rerio larvae (5 dpf).
Response: -7.04

Request: Moving on to C#CCN[C@@H]1CCc2ccccc21 [Rasagiline mesylate]
Response: 16.9

Request: Moving on to C[C@@H](O[C@H]1OCCN(Cc2n[nH]c(=O)[nH]2)[C@H]1c1ccc(F)cc1)c1cc(C(F)(F)F)cc(C(F)(F)F)c1 [Aprepitant]
Response: -4.19

----------
# Test system: Danio rerio larvae (5 dpf)
# testName: optomotor response to blue moving lines, difference vs DMSO (percentage points (treated minus DMSO)); higher = more of the behaviour than the DMSO vehicle control
# measurementContext: 10 µM; exposure time: 3 h pre-incubation + 3 h imaging
Label criterion not met if optomotor response to blue moving lines falls below 9; label criterion met in every other case.

Request: Is it the case that CC1(C)O[C@@H]2[C@@H](CO[C@@]3(COS(N)(=O)=O)OC(C)(C)O[C@@H]23)O1 [Topiramate] has optomotor response to blue moving lines reaching or exceeding 9?
Response: criterion not met

Request: Moving on to Cc1nnc(C(C)C)n1C1C[C@H]2CC[C@@H](C1)N2CC[C@H](NC(=O)C1CCC(F)(F)CC1)c1ccccc1 (stereo in doubt) [Maraviroc]
Response: criterion not met

Request: Moving on to Nc1nc2c(ncn2COCCO)c(=O)[nH]1 [Acyclovir]
Response: criterion met

Data origin: the supplement of paper PMC9023506
